Measured GI50 by item
test system: NCI-H460; assay: NCI tumour cell line growth inhibition, 48 h
Active and inactive are the calls of the source. Cut-off read from the data, not from the text of the source: active = GI50 up to about 1.1 µM and inactive = higher.

- molecule: "O=c1[nH]c(=O)n(COCc2ccccc2)c2ccsc12"
  GI50: "55.8 µM (inactive)"
- molecule: "COc1cc2c3c(c1OC)-c1cc4c(cc1CC3(C#N)N(C(=O)c1ccccc1)CC2)OCO4 (configuration not stated)"
  GI50: "52.6 µM (inactive)"
- molecule: "O=C(OC[C@H]1C[C@H]2C(=O)OCCC[C@H]2O1)c1ccccc1"
  GI50: "> 100 µM (inactive)"
- molecule: "CC(=O)OCCOCNC(=S)N/N=C/c1ccc([N+](=O)[O-])o1"
  GI50: "28.7 µM (inactive)"
- molecule: "COc1ccc(/C=C(\\C#N)c2ccccn2)cc1OC"
  GI50: "34.3 µM (inactive)"
- molecule: "CC(=O)N1c2ccccc2C(C)(C)OC1C(Cl)(Cl)Cl (configuration not stated)"
  GI50: "33.3 µM (inactive)"
- molecule: "CC(C)NC(=O)OCc1nnn2c1C(OC(=O)NC(C)C)CC2 (configuration not stated)"
  GI50: "> 100 µM (inactive)"
- molecule: "O=C1OCc2nc3c(c(-c4ccccc4C(F)(F)F)c21)C(=O)OC3"
  GI50: "> 100 µM (inactive)"
- molecule: "Cc1ccc([N+](=O)[O-])c2c(NCCCN(C)C)ccnc12"
  GI50: "23.2 µM (inactive)"
- molecule: "O=C(O)CNc1ccc(Cl)c(Cl)c1"
  GI50: "23.6 µM (inactive)"
- molecule: "NC(=O)c1csc(C2(O)COC(CO)C2O)n1 (configuration not stated)"
  GI50: "> 100 µM (inactive)"
- molecule: "Cc1ccc(S(=O)(=O)NC(=O)NCC(=O)O)cc1"
  GI50: "> 100 µM (inactive)"
- molecule: "CC(C)(C)C(=O)CC1(O)C=C(O)C(O)(CC(=O)C(C)(C)C)O1 (configuration not stated)"
  GI50: "10.1 µM (inactive)"
- molecule: "ClCCNCCNCCCl.ClCCNCCNCCCl.[O-][Cl+3]([O-])([O-])O"
  GI50: "22.3 µM (inactive)"
- molecule: "c1c[nH]c(-c2ccc(-c3ccc[nH]3)c3nsnc23)c1"
  GI50: "17.3 µM (inactive)"
- molecule: "CCCCC1Cc2cc(OC)ccc2-c2n1c1cc(OC)ccc1[n+]2C.CCCCC1Cc2cc(OC)ccc2-c2n1c1ccc(OC)cc1[n+]2C (configuration not stated)"
  GI50: "3.65 µM (inactive)"
- molecule: "Cc1cc2c(cc1-c1cc3c(cc1C)C(C(C)C)=C(O)C(=O)/C3=C\\Nc1ccccn1)/C(=C/Nc1ccccn1)C(=O)C(O)=C2C(C)C"
  GI50: "43.2 µM (inactive)"
- molecule: "C(=C\\Nc1ccc(-c2ccccc2)cc1)/C=N/c1ccc(-c2ccccc2)cc1"
  GI50: "> 100 µM (inactive)"
- molecule: "O=[N+]([O-])c1cccc2c1[nH]c1c(-c3ccccc3)nccc12"
  GI50: "2.33 µM (inactive)"
- molecule: "COc1ccc(-c2c(C(C)=O)c(-c3ccccc3)n(C3OC(COC(C)=O)C(OC(C)=O)C(OC(C)=O)C3OC(C)=O)c(=S)c2C#N)cc1 (configuration not stated)"
  GI50: "> 100 µM (inactive)"
- molecule: "OCCCCCNc1cc(O)nc(O)n1"
  GI50: "> 100 µM (inactive)"
- molecule: "Nc1nccc(NCC2(CO)CC(CCc3ccccc3)C2)n1 (configuration not stated)"
  GI50: "12.3 µM (inactive)"
